B1: 1ZHC (parent)
chain: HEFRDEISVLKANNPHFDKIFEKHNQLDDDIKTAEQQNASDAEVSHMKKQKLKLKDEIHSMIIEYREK

variants of: B1; test: folding stability dG (cDNA display proteolysis); higher = more stable; settings: PBS, room temperature
Known folding stability dG of a selection of variants
Hi! Could you send only the number? It should be in kcal/mol, unit omitted.

Some solved cases for reference:
mutant: S40K
attribute measured: folding stability dG
value: 0.104
--
mutant: E64S
attribute measured: folding stability dG
value: 0.735
--
mutant: Q36N
attribute measured: folding stability dG
value: 0.652

Ask | Looking for the measured folding stability dG of D41P , can you help?
Reply | 1.28

Ask | // next record A12D
Reply | 0.188

Ask | // next record F21Y
Reply | 0.959

Ask | // next record K23L
Reply | 1.55

Ask | // next record E22D
Reply | 0.198

Ask | // next record S40W
Reply | -0.874

Ask | // next record I62L
Reply | 0.874

Ask | // next record Q36W
Reply | 0.281

Ask | // next record R4F
Reply | 1.5

Reference source for all entries: the MegaScale stability set (Tsuboyama et al. 2023)
